FYI, the data here is from patent USRE37180E.

- ASSAY EXPLANATION: acute toxicity tested by intravenous injection to CD-1 mice (male)
- TEST CONDITIONS: mouse, in vivo
MEASURE NAME: LD50 (mg/kg)
The response must be a number in mg/kg with no trailing unit.

Exam item: Supply recorded LD50 for C=Cc1c(C)c2cc3nc(c(CC(=O)N[C@@H](CC(=O)O)C(=O)O)c4[nH]c(cc5nc(cc1[nH]2)C(C)=C5CC)c(C)c4C(=O)O)[C@@H](CCC(=O)O)[C@@H]3C here.
Marked response: 164
